Test system: Pseudomonas aeruginosa
Assay: Antibacterial activity against Pseudomonas aeruginosa MTCC 424 at 250 ug/ml after 24 hrs by agar well diffusion method
Type: functional
Stated Conditions: MTCC 424, 24 h, read-out: IZ
Measured zone of inhibition at 250 µg/mL, listed per entry.

Lookup: Entry `Clc1ccc2nc(-c3cccc(Oc4ccccc4)c3)cc(-c3ccccc3)c2c1` : reported zone of inhibition at 250 µg/mL = ?
Found: 6.89 mm

Lookup: Item `Oc1ccc2nc(-c3cccc(Oc4ccccc4)c3)cc(-c3ccccc3)c2c1` has what recorded zone of inhibition at 250 µg/mL?
Found: 16.5 mm

Lookup: Consider the compound `Oc1c(Cl)cc2nc(-c3cccc(Oc4ccccc4)c3)cc(-c3ccccc3)c2c1Cl` and give its measured zone of inhibition at 250 µg/mL.
Found: 21.3 mm

Lookup: Consider the compound `O=C(O)c1cn(C2CC2)c2cc(N3CCNCC3)c(F)cc2c1=O` and give its measured zone of inhibition at 250 µg/mL.
Found: 21 to 23.8 mm

Lookup: What does the record list as zone of inhibition at 250 µg/mL for `Fc1ccc2nc(-c3cccc(Oc4ccccc4)c3)cc(-c3ccccc3)c2c1` ?
Found: 10.4 mm

Lookup: Request the reported zone of inhibition at 250 µg/mL associated with `N#Cc1ccc2nc(-c3cccc(Oc4ccccc4)c3)cc(-c3ccccc3)c2c1`
Found: 12.7 mm

Lookup: Find the recorded zone of inhibition at 250 µg/mL belonging to `Cc1cc2nc(-c3cccc(Oc4ccccc4)c3)cc(-c3ccccc3)c2cc1C` and report it.
Found: 11.4 mm

Lookup: Param item = `COc1ccc2nc(-c3cccc(Oc4ccccc4)c3)cc(-c3ccccc3)c2c1` ; retrieve measured zone of inhibition at 250 µg/mL.
Found: 10.8 mm

Lookup: Fill in: zone of inhibition at 250 µg/mL of `Brc1ccc2nc(-c3cccc(Oc4ccccc4)c3)cc(-c3ccccc3)c2c1` is ___
Found: 9.79 mm
